IC50 values for Human Factor XIIa (Homo sapiens) compiled from several publications are listed below.

Recorded results for 6 molecules are shown here.
- COc1ccnc(CNC(=O)c2cn(Cc3ccc(Cn4ccccc4=O)cc3)nc2N(C)C)c1F: > 40 µM
- Nc1nccc2cc(CNC(=O)c3cnc(Oc4ccccc4)c(Cl)c3)ccc12: 10 to 40 µM
- CCOc1ccc(C[C@@H](NC(=O)c2cc(Cl)cc(Cl)c2)C(=O)N[C@@H](Cc2ccccc2)C(=O)NCc2ccc(CN)cc2)cc1: > 10 µM
- Nc1nccc2cc(CNC(=O)c3cc(Cl)c(COCCC4CCOCC4)s3)ccc12: 10 to 40 µM
- CNS(=O)(=O)c1sc(C(=O)NCc2ccc3c(N)nccc3c2)cc1Br: 1 to 3 µM
- Nc1nccc2cc(CNC(=O)c3cnc(NC4CCNCC4)c(Cl)c3)ccc12: 10 to 40 µM

Tested system Human Factor XIIa (Homo sapiens); IC50 recorded for "COCc1nn(Cc2cnc(N3CCCC3)nc2)cc1C(=O)NCc1c(C#N)ccc(OC)c1F" was > 40 µM

The molecule "Nc1nccc2cc(CNC(=O)c3cc(Cl)c(CNCc4ccc(N5CCCC5=O)cc4)s3)ccc12" , when measured on Human Factor XIIa (Homo sapiens), yielded IC50 of 3 to 10 µM

* * *

# literature pull: UniProtKB P00748 pIC50
pIC50: −log10 of the molar value.

pIC50 recorded for this compound, "COCc1nn(Cc2ccc(Cn3ccccc3=O)nc2)cc1C(=O)NCc1c(C#N)ccc(OC)c1F" , is < 5.40

Reported pIC50 for "Nc1nccc2cc(CNc3ccc(OC4CCNCC4)cc3)ccc12" was 5.52 to 6.00

Memo: "CCOc1ccc(C[C@@H](NC(=O)c2ccc(Cl)c(Cl)c2)C(=O)N[C@@H](Cc2ccccc2)C(=O)NCc2ccc(CN)cc2)cc1" , reported pIC50: < 5.00

Record "Nc1nccc2cc(CNC(=O)c3cc4c(Cl)cccc4[nH]3)ccc12" . Reported pIC50: 5.52 to 6.00

Recorded pIC50 (compound "CCOc1ccc(C[C@@H](NC(=O)c2sccc2NC(C)=O)C(=O)N[C@@H](Cc2csc3ccccc23)C(=O)NCc2ccc(CN)cc2)cc1" ): < 5.00

Value of pIC50 reported for the compound "Nc1nccc2cc(CNC(=O)c3cnc(Cl)c(Cl)c3)ccc12" is 5.00 to 5.52

* * *

Across several studies, compounds have been characterized by their IC50 on Human Factor XIIa (Homo sapiens, UniProt P00748); a selection follows.

* Cc1nc2ccc(NC(=O)c3nccnc3NCC3CCN(C)CC3)cc2o1 | 10 to 40 µM
* CN1CCC(NC(=O)c2ccc(NCc3ccc4c(N)nccc4c3)nc2)CC1 | 10 to 40 µM
* CN1CCc2cc(Nc3nccnc3C(=O)NCc3ccc4c(N)nccc4c3)ccc2C1 | 0.3 to 1 µM

# lookup: Cc1cccc2c1NCCC2C(=O)n1nc(N)c2c1CN(S(=O)(=O)C1COC1)CC2 (centres unmarked) on Human Factor XIIa (Homo sapiens, UniProt P00748), IC50 = 35 µM

The compound "CN(C)c1ccc(Nc2ncc(C(=O)NCc3ccc4c(N)nccc4c3)cc2Cl)cc1" on Human Factor XIIa (Homo sapiens, UniProt P00748): IC50 was 10 to 40 µM

Reading of IC50 for Nc1c2c(nn1C(=O)[C@@H]1CCNc3ccccc31)CC[C@H](O)C2 (single isomer, unassigned) with Human Factor XIIa (Homo sapiens, UniProt P00748): 60 µM

IC50 of "Cc1cc(C(=O)NCc2ccc3c(N)nccc3c2)nn1CC1CCN(c2ccncc2)CC1" , assay on Human Factor XIIa (Homo sapiens, UniProt P00748), is 3 to 10 µM

Tested system Human Factor XIIa (Homo sapiens, UniProt P00748); IC50 recorded for "Cc1cc(C(=O)NCc2ccc(CN)cc2)c(C)n1Cc1csc(-c2ccccc2)n1" was > 10 µM

Value sought: IC50, system Human Factor XIIa (Homo sapiens, UniProt P00748), item "Nc1nccc2cc(CNC(=O)c3cc(Cl)c(CNCC4CCN(c5ccncc5)CC4)s3)ccc12" . Result: 1 to 3 µM

Response field IC50 (Human Factor XIIa (Homo sapiens, UniProt P00748)) for item Nc1c2c(nn1C(=O)[C@@H]1CCNc3ccc(F)cc31)CC[C@H](N)C2 (stereo in doubt) : 4 µM

The reported IC50 value, Human Factor XIIa (Homo sapiens, UniProt P00748), for "Nc1nccc2cc(CNC(=O)c3cc(Cl)cnc3Oc3ccc(N4CCNCC4)cc3)ccc12" reads 3 to 10 µM

Here Nc1nn(C(=O)C2CCNc3ccc(F)cc32)c2c1COCC2 (centres unmarked) was tested on Human Factor XIIa (Homo sapiens, UniProt P00748), and its IC50 came to 25 µM

Kindly note: Human Factor XIIa (Homo sapiens, UniProt P00748), Nc1nn(C(=O)C2OCCc3ccccc32)c2c1CCCC2 (single isomer, unassigned) , IC50 value reported: > 100 µM
